The following compounds are shown together with reported EC50 values.
- target: TRAP1 enzyme (Homo sapiens, UniProt Q12931)
- Construct: 150 nM Trap1 enzyme was incubated with various concentrations of the test compound
- Sequence (Q12931 60-704): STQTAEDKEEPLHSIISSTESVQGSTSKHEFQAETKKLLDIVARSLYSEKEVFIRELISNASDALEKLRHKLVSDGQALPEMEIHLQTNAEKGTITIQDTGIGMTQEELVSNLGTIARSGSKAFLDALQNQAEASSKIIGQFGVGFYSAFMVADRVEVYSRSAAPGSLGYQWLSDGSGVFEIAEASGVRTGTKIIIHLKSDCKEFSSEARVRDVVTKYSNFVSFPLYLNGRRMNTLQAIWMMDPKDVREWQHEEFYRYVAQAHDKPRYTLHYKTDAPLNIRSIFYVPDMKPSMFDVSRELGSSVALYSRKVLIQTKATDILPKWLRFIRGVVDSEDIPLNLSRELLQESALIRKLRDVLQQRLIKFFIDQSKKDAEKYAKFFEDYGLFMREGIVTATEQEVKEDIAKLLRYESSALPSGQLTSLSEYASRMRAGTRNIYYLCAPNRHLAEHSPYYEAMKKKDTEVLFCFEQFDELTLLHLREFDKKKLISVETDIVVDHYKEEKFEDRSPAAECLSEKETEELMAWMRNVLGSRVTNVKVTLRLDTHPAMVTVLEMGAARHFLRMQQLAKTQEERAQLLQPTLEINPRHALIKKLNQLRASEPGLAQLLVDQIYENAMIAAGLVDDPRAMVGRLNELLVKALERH
- test: ADP Glo assay of TRAP1 ATPase activity
- Assay type: biochemical
- measurement.conditions: concentration for half maximal activation; read-out: ADP GLO DRC: GeoMean EC50

Some solved entries appear below for comparison.
smiles.notation	EC50
COc1ncc(NC(=O)c2ccnc(-c3cccnc3)c2)cc1S(=O)(=O)Nc1c(C)cccc1C	10 to 20 µM
COc1ncc(NC(=O)c2csc(C(C)C)n2)cc1S(=O)(=O)Nc1c(C)cccc1C	10 to 20 µM
COc1ncc(NC(=O)c2ncc(-c3ccccc3)o2)cc1S(=O)(=O)Nc1cc(-c2ccc(C)cc2)nn1C	20 to 100 µM
COc1ncc(NC(=O)c2cc3c(C)nn(C)c3s2)cc1S(=O)(=O)Nc1c(C)cccc1C	< 10 µM
COc1ncc(NC(=O)c2csc(-c3ccccc3)n2)cc1S(=O)(=O)Nc1c(C)cc(Cl)cc1C	10 to 20 µM
COc1ncc(NC(=O)c2cccc(-c3ccnn3C)c2)cc1S(=O)(=O)Nc1c(C)cccc1C	10 to 20 µM

// query # get_value(readout='EC50', item= COc1ncc(NC(=O)c2csc(-c3cccc(Cl)n3)n2)cc1S(=O)(=O)Nc1c(C)cccc1C )
// result < 10 µM

// query Another compound to look at: COc1ncc(NC(=O)c2csc(-c3ccccc3)n2)cc1S(=O)(=O)Nc1c(C(F)(F)F)cccc1C(F)(F)F
// result 10 to 20 µM

// query Same thing, different compound: COc1ncc(NC(=O)c2csc(-c3ccccc3)n2)cc1S(=O)(=O)Nc1ccccc1C
// result < 10 µM

// query Queued: COc1ncc(NC(=O)c2noc3ccccc23)cc1S(=O)(=O)Nc1c(C)cccc1C
// result < 10 µM

// query Repeat for the following compound: COc1ncc(NC(=O)c2csc(-c3ccccc3)n2)cc1S(=O)(=O)Nc1c(C)cc(F)cc1C
// result < 10 µM

// query Same thing, different compound: COc1ncc(NC(=O)c2csc(-c3ccccc3)n2)cc1S(=O)(=O)Nc1cccc(C#N)c1C
// result < 10 µM

// query Here is the next compound: COc1ncc(NC(=O)c2ncc(-c3ccccc3)o2)cc1S(=O)(=O)Nc1cc(C2CCCCC2)no1
// result 10 to 20 µM

Origin of values: patent US20230159509A1
